The reported numbers originate from patent US12281181.

biological target: T1, Recombinant GST-NEMO (NEMO(1-196)) (UniProt Q9Y6K9 1-196, biotinylated in the library screen); test: HTRF competition, GST-NEMO + biotin-IKKβKK/RR(701-745), peptide 0-100 µM
T1 construct: range 1-196; Expressed in E. coli BL21(DE3); also called NF-κB essential modulator; IKKγ; not shown: glutathione S-transferase (GST) tag encoded by the pGEX4T3 vector
T1 sequence (Q9Y6K9 1-196): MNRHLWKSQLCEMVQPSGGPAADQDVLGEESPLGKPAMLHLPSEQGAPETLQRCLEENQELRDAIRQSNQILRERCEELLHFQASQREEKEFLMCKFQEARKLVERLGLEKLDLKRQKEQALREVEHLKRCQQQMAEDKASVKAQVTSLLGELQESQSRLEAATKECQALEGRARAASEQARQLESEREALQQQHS
pIC50: −log10 of the molar value. Square brackets hold non-standard residues; d marks the D form. Ends that are not written are not given here. 2Nal = N[C@@H](Cc1ccc2ccccc2c1)C(=O)O; Dap = NC[C@H](N)C(=O)O; βAla = NCCC(=O)O
readout: pIC50

GWIYA[Dap]A[2Nal]R[dR]R[Dap][βAla][βAla]K (linker (positions not given here) via trimesic acid; not fully specified (bridges); printed as Tm(GWIYA)Δ(AΦRrRΔ)-BBK) [peptide 15]	5.72

1. AGWIY[Dap]F[2Nal]R[dR]R[Dap][βAla][βAla]K (linker (positions not given here) via trimesic acid; not fully specified (bridges); printed as Tm(AGWIY)Δ(FΦRrRΔ)-BBK) [peptide 9]
2. GWIYA[Dap]F[2Nal]A[dR]R[Dap][βAla][βAla]K (linker (positions not given here) via trimesic acid; not fully specified (bridges); printed as Tm(GWIYA)Δ(FΦArRΔ)-BBK) [peptide 17]
stdin: Given the listed records, identify the one among 1 and 2 with higher pIC50. Answer = label.
stdout: 2
(2: 5.96, 1: 5.66)
